Target: Estrogen receptor (Rattus norvegicus)
Test: Binding affinity to Charles Foster Rattus norvegicus (rat) uterine 17beta-estradiol receptor cytosolic form relative to estradiol
Quantity name: Activity (%)
The answer is to be given in %; state only the numeric part.

Sample `COc1ccc2c(c1)OC(C)(C)[C@H](c1ccccc1)[C@H]2c1ccc(O)cc1` ; Activity observed: 2.1

Sample COc1ccc2c(c1)OC(C)(C)[C@@H](c1ccccc1)[C@@H]2c1ccc(O)cc1 (relative stereo; 1c) ; Activity observed: 15.7

Sample COc1ccc2c(c1)OC(C)(C)[C@H](c1ccccc1)[C@@H]2c1ccc(OC(C)C(=O)NN)cc1 (relative stereo) ; Activity observed: 0.011

Sample COc1ccc2c(c1)OC(C)(C)[C@@H](c1ccccc1)[C@@H]2c1ccc(OC(C)C(=O)NN)cc1 (single isomer, unassigned; (-)) ; Activity observed: 0.37

Sample CCOC(=O)C(C)Oc1ccc([C@@H]2c3ccc(OC)cc3OC(C)(C)[C@H]2c2ccccc2)cc1 (relative stereo) ; Activity observed: 0.029

Sample COc1ccc2c(c1)OC(C)(C)[C@@H](c1ccccc1)[C@@H]2c1ccc(OC(C)C(=O)NN)cc1 (relative stereo) ; Activity observed: 0.052
